Entries annotated with measured Rel. kmax
Biological target: Epac2^Δ280 (Mus musculus)
Construct: made in house
Assay: Epac activation assay (Rap1B•mGDP fluorescence nucleotide exchange), Epac2^Δ280
Format: biochemical
Details: Epac2^Δ280; maximal activity relative to cAMP
Please give the numeric answer without any surrounding text.

Here is how some compounds turned out for Rel. kmax.
Nc1ncnc2c1nc(SCc1cccc(C(F)(F)F)c1)n2[C@@H]1O[C@@H]2CO[P@](O)(=S)O[C@H]2[C@H]1O; 5.0
CO[C@@H]1[C@@H]2O[P@@](O)(=S)OC[C@H]2O[C@H]1n1c(SC)nc2c(N)ncnc21; 3.2

Input line: Given the compound CN(C)c1nc2c(N)ncnc2n1[C@@H]1O[C@@H]2COP(=O)(O)O[C@H]2[C@H]1O , what is its reported Rel. kmax?
Output line: 3.6

###

kobs values, listed per item
Biological target: Epac1 (Homo sapiens, UniProt O95398)
Construct: made in house
Sequence (O95398 192-923): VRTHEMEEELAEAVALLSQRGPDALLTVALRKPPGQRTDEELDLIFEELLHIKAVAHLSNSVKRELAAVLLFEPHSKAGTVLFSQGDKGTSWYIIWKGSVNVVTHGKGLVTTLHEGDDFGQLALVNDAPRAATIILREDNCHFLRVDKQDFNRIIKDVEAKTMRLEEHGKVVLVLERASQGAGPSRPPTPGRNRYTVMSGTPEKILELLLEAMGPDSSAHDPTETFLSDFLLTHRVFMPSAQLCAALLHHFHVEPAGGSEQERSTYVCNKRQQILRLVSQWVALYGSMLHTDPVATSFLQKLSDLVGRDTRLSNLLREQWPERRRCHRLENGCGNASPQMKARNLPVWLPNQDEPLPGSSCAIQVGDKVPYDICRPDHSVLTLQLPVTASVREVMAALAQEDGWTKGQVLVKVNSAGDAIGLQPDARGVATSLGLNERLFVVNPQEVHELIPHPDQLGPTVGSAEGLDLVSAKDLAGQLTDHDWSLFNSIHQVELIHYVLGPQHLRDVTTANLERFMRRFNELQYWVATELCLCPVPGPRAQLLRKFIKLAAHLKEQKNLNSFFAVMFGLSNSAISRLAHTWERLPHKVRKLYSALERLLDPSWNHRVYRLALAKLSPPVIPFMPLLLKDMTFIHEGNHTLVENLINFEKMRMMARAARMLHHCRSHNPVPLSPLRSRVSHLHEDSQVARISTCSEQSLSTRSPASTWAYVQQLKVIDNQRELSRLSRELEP
Assay: Epac activation assay, Epac1
Assay type: biochemical
Settings: 20 μM compound
Numeric answer only, unit s⁻¹ assumed.

Nc1ncnc2c1ncn2[C@@H]1O[C@@H]2COP(=O)(O)O[C@H]2[C@H]1O [cAMP, reference compound]; 0.000421
Cc1ccc(CSc2nc3c(N)ncnc3n2[C@@H]2O[C@@H]3CO[P@](O)(=S)O[C@H]3[C@H]2O)cc1; 9.4e-05
Nc1ncnc2c1nc(SCc1ccccc1)n2[C@@H]1O[C@@H]2CO[P@](O)(=S)O[C@H]2[C@H]1O; 0.000263

Now consider the entry below.
Input line: Look up kobs: COC1C2OP(=O)(O)OCC2OC1n1c(Sc2ccc(Cl)cc2)nc2c(N)ncnc21 [D-007, 8-pCPT-2′-O-Me-cAMP, reference compound]
Output line: 0.00351

###

Below, each of the compounds is paired with its reported A (PKA activity) value.
Biological target: PKA-Iβ (Homo sapiens)
Construct: made in house
Sequence (P31321 whole entry): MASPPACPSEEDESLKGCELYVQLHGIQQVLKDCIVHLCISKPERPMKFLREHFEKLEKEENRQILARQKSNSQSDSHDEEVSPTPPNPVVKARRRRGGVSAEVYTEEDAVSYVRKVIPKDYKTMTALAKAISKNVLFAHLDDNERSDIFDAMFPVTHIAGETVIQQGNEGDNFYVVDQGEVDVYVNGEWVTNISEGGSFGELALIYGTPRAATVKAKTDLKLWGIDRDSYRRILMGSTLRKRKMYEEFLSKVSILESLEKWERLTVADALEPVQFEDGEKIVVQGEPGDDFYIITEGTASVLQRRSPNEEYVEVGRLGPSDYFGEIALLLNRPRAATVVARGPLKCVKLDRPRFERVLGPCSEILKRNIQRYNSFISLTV
Assay: PKA activity assay, PKA-Iβ
Type: biochemical
Details: PKAIβ; concentration 1.00E+01 μM
The figure you give is taken to be in U/mg; do not add the unit.

Nc1ncnc2c1nc(SCc1ccccc1)n2[C@@H]1O[C@@H]2CO[P@](O)(=S)O[C@H]2[C@H]1O; 2.34E+01

Input line: Which value of A (PKA activity) has been reported for Cc1ccc(CSc2nc3c(N)ncnc3n2[C@@H]2O[C@@H]3CO[P@](O)(=S)O[C@H]3[C@H]2O)cc1 in the records?
Output line: 2.81

Input line: Similarly, Nc1ncnc2c1ncn2[C@@H]1O[C@@H]2COP(=O)(O)O[C@H]2[C@H]1O [cAMP, reference compound] ?
Output line: 2.37E+01

Input line: Next: COC1C2OP(=O)(O)OCC2OC1n1c(Sc2ccc(Cl)cc2)nc2c(N)ncnc21 [D-007, 8-pCPT-2′-O-Me-cAMP, reference compound]
Output line: 9.18

###

Target: Epac2^fl (Mus musculus)
Sequence (Q9EQZ6 1-993 isoform Q9EQZ6-3): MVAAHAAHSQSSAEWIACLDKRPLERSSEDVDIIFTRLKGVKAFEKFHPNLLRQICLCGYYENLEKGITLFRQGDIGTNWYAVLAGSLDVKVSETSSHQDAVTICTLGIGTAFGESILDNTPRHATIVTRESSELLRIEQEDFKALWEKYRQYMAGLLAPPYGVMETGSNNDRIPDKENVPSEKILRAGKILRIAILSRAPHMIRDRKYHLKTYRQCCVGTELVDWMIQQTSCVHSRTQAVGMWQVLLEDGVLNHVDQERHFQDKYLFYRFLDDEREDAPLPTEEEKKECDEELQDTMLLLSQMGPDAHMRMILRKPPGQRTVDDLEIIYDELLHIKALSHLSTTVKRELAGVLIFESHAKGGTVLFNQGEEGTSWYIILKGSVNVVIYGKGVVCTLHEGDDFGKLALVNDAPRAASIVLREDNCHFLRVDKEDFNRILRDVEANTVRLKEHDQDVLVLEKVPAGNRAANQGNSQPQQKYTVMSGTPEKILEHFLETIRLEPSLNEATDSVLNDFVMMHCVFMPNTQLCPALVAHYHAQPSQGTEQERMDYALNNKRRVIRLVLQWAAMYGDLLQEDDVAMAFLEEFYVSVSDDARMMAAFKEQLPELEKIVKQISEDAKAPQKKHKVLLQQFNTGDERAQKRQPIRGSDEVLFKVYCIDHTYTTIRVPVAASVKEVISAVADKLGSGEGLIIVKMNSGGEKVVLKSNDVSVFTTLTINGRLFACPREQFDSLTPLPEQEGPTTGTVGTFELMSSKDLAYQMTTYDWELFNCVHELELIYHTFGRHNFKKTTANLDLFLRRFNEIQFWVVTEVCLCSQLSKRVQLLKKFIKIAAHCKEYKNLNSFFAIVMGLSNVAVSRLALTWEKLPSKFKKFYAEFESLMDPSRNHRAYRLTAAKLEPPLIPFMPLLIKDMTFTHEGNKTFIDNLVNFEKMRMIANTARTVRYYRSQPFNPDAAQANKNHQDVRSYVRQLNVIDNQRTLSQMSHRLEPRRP
Assay: Epac activation assay, full length Epac2
Type: biochemical
Design: made in house
Conditions: 10 μM compound
Quantity: kobs (s⁻¹)
Output spec: scalar in s⁻¹, unitless text.

Below: 3 compounds and their reported kobs.
COC1C2OP(=O)(O)OCC2OC1n1c(Sc2ccc(Cl)cc2)nc2c(N)ncnc21 [D-007, 8-pCPT-2′-O-Me-cAMP, reference compound]; 4.22e-05
Nc1ncnc2c1ncn2[C@@H]1O[C@@H]2COP(=O)(O)O[C@H]2[C@H]1O [cAMP, reference compound]; 7.22e-05
Nc1ncnc2c1nc(SCc1ccccc1)n2[C@@H]1O[C@@H]2CO[P@](O)(=S)O[C@H]2[C@H]1O; 0.00125

Input line: // query kobs value for entry Cc1ccc(CSc2nc3c(N)ncnc3n2[C@@H]2O[C@@H]3CO[P@](O)(=S)O[C@H]3[C@H]2O)cc1
Output line: 0.000238
